biological target: MLKL (Homo sapiens); assay: MLKL degradation assay in HepG2 cell line (western blot); format: cell-based; set-up: endogenous in cells; host or cells: HepG2 or HaCaT; conditions: compound 10 μM; cell line not given
Sequence (Q8NB16 whole entry): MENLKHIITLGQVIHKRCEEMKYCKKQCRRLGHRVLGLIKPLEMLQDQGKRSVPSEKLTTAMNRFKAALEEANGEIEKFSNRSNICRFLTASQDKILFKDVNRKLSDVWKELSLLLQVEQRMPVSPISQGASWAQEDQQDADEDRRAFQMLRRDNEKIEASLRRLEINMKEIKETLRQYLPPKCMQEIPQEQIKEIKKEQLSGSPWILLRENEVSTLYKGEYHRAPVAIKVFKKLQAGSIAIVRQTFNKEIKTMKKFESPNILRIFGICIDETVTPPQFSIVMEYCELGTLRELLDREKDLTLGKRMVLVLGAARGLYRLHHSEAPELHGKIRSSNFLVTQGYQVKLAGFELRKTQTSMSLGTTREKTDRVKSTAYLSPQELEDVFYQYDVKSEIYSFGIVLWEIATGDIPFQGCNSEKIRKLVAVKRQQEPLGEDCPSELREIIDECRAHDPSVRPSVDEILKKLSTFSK
recordedEndpoint: Degradation assay (Degradation %) 10 μM

compound	endpointUnit	valueObserved
Nc1ncc(-c2cnn(C3CCN(CCCN4CCN(C(=O)c5ccc6c(c5)CN(C5CCC(=O)NC5=O)C6=O)CC4)CC3)c2)nc1C(=O)O[C@@H](C(=O)Nc1ccc(F)cc1)c1ccccc1 (some centres unmarked)	%	61.10
Nc1ncc(-c2cnn(C3CCN(CCOCCOCCNC(=O)C4CCN(c5ccc6c(c5)C(=O)N(C5CCC(=O)NC5=O)C6=O)CC4)CC3)c2)nc1C(=O)O[C@@H](C(=O)Nc1ccc(F)cc1)c1ccccc1 (some centres unmarked)	%	28.85
Nc1ncc(-c2cnn(C3CCN(CC4CCN(C(=O)C5CCN(c6ccc7c(c6)C(=O)N(C6CCC(=O)NC6=O)C7=O)CC5)CC4)CC3)c2)nc1C(=O)O[C@@H](C(=O)Nc1ccc(F)cc1)c1ccccc1 (some centres unmarked)	%	60.57
Nc1ncc(-c2cnn(C3CCN(C(=O)C4CCN(C(=O)CCc5cccc6c5C(=O)N(C5CCC(=O)NC5=O)C6=O)CC4)CC3)c2)nc1C(=O)O[C@@H](C(=O)Nc1ccc(F)cc1)c1ccccc1 (some centres unmarked)	%	95.41
COc1ccc(C(=O)N2CCC(C(=O)N3CCC(CN4CCC(CCN5CCC(n6cc(-c7cnc(N)c(C(=O)O[C@@H](C(=O)Nc8ccc(F)cc8)c8ccccc8)n7)cn6)CC5)CC4)CC3)CC2)cc1N1CCC(=O)NC1=O	%	91.73

----------
Necroptosis inhibition assay (Rescue %) 1 μM: recorded values
system: FADD−/− Jurkat cells; experiment: Necroptosis inhibition assay, TNF-α-induced necroptosis (CellTiter-Glo 2.0); format: cell-based, human; conditions: compound 1 μM; TNF-α 15 ng/mL
recordedEndpoint: Necroptosis inhibition assay (Rescue %) 1 μM

molecule	valueObserved
Nc1ncc(-c2cnn(C3CCN(CCC4CCN(C(=O)CNc5ccc6c(c5)C(=O)N(C5CCC(=O)NC5=O)C6=O)CC4)CC3)c2)cc1C(=O)OC(C(=O)Nc1ccc(F)cc1)c1ccccc1 (stereo not drawn)	54.15
Nc1ncc(-c2cnn(C3CCN(CCCCCCNC(=O)C4CN(c5ccc6c(c5)C(=O)N(C5CCC(=O)NC5=O)C6=O)C4)CC3)c2)nc1C(=O)O[C@@H](C(=O)Nc1ccc(F)cc1)c1ccccc1 (stereo partly drawn)	13.68
Nc1ncc(-c2cnn(C3CCN(CCC4CCN(c5ccc6nnn(C7CCC(=O)NC7=O)c(=O)c6c5)CC4)CC3)c2)nc1C(=O)OC(C(=O)Nc1ccc(F)cc1)c1ccccc1 (stereo not drawn)	63.46
Nc1ncc(-c2cnn(C3CCN(CCOC4CCN(C(=O)COc5ccc6c(c5)C(=O)N(C5CCC(=O)NC5=O)C6=O)CC4)CC3)c2)nc1C(=O)OC(C(=O)Nc1ccc(F)cc1)c1ccccc1 (stereo not drawn)	124.11
Nc1ncc(C2=CCN(C(=O)COCCOCCNC(=O)C3CCN(c4cccc5c4C(=O)N(C4CCC(=O)NC4=O)C5=O)CC3)CC2)cc1C(=O)O[C@@H](C(=O)Nc1ccc(F)cc1)c1ccccc1 (stereo partly drawn)	4.62
Nc1ncc(-c2cnn(C3CCN(CCCCCCCCCCNC(=O)COc4cccc5c4C(=O)N(C4CCC(=O)NC4=O)C5=O)CC3)c2)nc1C(=O)O[C@@H](C(=O)Nc1ccc(F)cc1)c1ccccc1 (stereo partly drawn)	30.03
Nc1ncc(-c2cnn(C3CCN(CCCN4CCN(C(=O)CCc5cccc6c5C(=O)N(C5CCC(=O)NC5=O)C6=O)CC4)CC3)c2)nc1C(=O)O[C@@H](C(=O)Nc1ccc(F)cc1)c1ccccc1 (stereo partly drawn)	59.24
Nc1ncc(-c2cnn(C3CCN(CCCN4CCN(C(=O)COc5cccc6c5C(=O)N(C5CCC(=O)NC5=O)C6=O)CC4)CC3)c2)nc1C(=O)OC(C(=O)Nc1ccc(F)cc1)c1ccccc1 (stereo not drawn)	61.25
Nc1ncc(-c2ccc(N3CCN(CC4CCN(C(=O)CNc5ccc6c(c5)C(=O)N(C5CCC(=O)NC5=O)C6=O)CC4)CC3)nc2)nc1C(=O)OC(C(=O)Nc1ccc(F)cc1)c1ccccc1 (stereo not drawn)	23.37
